Assay: activity coefficient (dimensionless); of the first substance listed, at infinite dilution; xn = mol fraction of the nth substance listed
Conditions: 388.15 K; 101 kPa; Liquid; Chromatography; x1 = 0
Could you please report measured activity coefficient for the items listed next?
Numbers only.

Sample records with activity coefficient:
1. C#CCCCCCC [1-octyne] + CCCCCCCCCCCCCCCCCCC(CCCCCCCCCCCCCCCCCC)CCCCC(CCCCCCCCCCCCCCCCCC)CCCCCCCCCCCCCCCCCC : 0.424
2. C#CCCCCCCCC [1-decyne] + CCCCCCCCCCCCCCCCCCC(CCCCCCCCCCCCCCCCCC)CCCCC(CCCCCCCCCCCCCCCCCC)CCCCCCCCCCCCCCCCCC : 0.446
3. CC1CCCCC1 [methylcyclohexane] + CCCCCCCCCCCCCCCCCCC(CCCCCCCCCCCCCCCCCC)CCCCC(CCCCCCCCCCCCCCCCCC)CCCCCCCCCCCCCCCCCC : 0.273
4. CCCCCc1ccccc1 [pentylbenzene] + CCCCCCCCCCCCCCCCCCC(CCCCCCCCCCCCCCCCCC)CCCCC(CCCCCCCCCCCCCCCCCC)CCCCCCCCCCCCCCCCCC : 0.385

Quick request: activity coefficient for each listed item, please.
1. CCC(C)C(C)CC (stereo unspecified) [3,4-dimethylhexane] + CCCCCCCCCCCCCCCCCCC(CCCCCCCCCCCCCCCCCC)CCCCC(CCCCCCCCCCCCCCCCCC)CCCCCCCCCCCCCCCCCC
2. C=CCCCCCCCCCCC [1-tridecene] + CCCCCCCCCCCCCCCCCCC(CCCCCCCCCCCCCCCCCC)CCCCC(CCCCCCCCCCCCCCCCCC)CCCCCCCCCCCCCCCCCC

Response given:
[0.357, 0.466]

Data provenance is the NIST ThermoML archive (doi:10.1016/j.fluid.2006.07.015).
